molecular target: human P2X3 receptor (Homo sapiens (Human), UniProt P56373); assay: Evaluation of human P2X3 receptor inhibitory activity (Test Example 1); type: cell-based; conditions: C6BU-1 cell transfected with human P2X3 receptor gene, FLIPR 384
Sequence (P56373 whole entry): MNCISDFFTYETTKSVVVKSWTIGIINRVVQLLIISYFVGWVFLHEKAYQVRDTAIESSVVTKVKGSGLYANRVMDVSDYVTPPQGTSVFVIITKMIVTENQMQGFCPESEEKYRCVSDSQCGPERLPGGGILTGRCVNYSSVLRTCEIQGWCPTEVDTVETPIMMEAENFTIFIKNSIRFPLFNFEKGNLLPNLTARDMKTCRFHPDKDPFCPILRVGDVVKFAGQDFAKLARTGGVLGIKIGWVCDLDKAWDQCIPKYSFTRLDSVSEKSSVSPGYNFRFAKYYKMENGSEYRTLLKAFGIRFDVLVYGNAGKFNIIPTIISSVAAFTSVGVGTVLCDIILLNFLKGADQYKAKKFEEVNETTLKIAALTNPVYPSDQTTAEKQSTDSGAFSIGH
recorded.metric: pIC50
Please note pIC50 is a logarithmic value: minus log10 of concentration in mol/L. Answer with that number alone.

Example cases with answers are listed next.
• C[C@@H](Cn1c(=O)[nH]/c(=N\c2ccc(Oc3ncccc3F)cc2)n(Cc2ccc(CF)cc2)c1=O)C(=O)O = 7.80
• Cc1ccc(Cn2c(=O)n([C@H](C)CC(=O)O)c(=O)[nH]/c2=N\c2ccc(Oc3ccccn3)cc2)cc1 = 8.10
• COC(=O)[C@H](C)[C@H](C)n1c(=O)[nH]/c(=N\c2ccc(Oc3ncccc3F)cc2)n(Cc2ccc(C)cc2)c1=O = 8.05
• Cc1cc(/N=c2\[nH]c(=O)n(C[C@H](C)C(=O)O)c(=O)n2Cc2ccc(Cl)cc2)ccc1Oc1ccccn1 = 8.00
• COCc1ccc(Oc2ccc(/N=c3\[nH]c(=O)n(C[C@H](C)C(=O)O)c(=O)n3Cc3ccc(Cl)cc3)cc2)nc1 = 8.10

Okay, next one:
// field: pIC50; key: "Cc1ccc(Cn2c(=O)n([C@H]3C[C@@H](C(=O)O)C3)c(=O)[nH]/c2=N\c2ccc(Oc3ccc(Cl)cn3)cc2)cc1" ; value = 8.22

Every entry's value here was drawn from patent US10065941B2.
